Hi there, I'd appreciate the recorded relative viability for every entry that follows.
- Tested on: UMC-11
- assay method text: relative viability (nuclei count vs DMSO), 5 days (fraction); higher = more cells survive
- protocol conditions: first compound 2.53 µM
// no unit, no text: just the number

Recall the reported relative viability of Nc1cccc2c1CN(C1CCC(=O)NC1=O)C2=O (stereo not given) [Lenalidomide] + Cc1nc(Nc2ncc(C(=O)Nc3c(C)cccc3Cl)s2)cc(N2CCN(CCO)CC2)n1 [Dasatinib] (partner 0.075 µM) on UMC-11 and write it down.
0.542

Recall the reported relative viability of Nc1cccc2c1CN(C1CCC(=O)NC1=O)C2=O (stereo not given) [Lenalidomide] + CS(=O)(=O)CCNCc1ccc(-c2ccc3ncnc(Nc4ccc(OCc5cccc(F)c5)c(Cl)c4)c3c2)o1 [Lapatinib] (partner 2 µM) on UMC-11 and write it down.
1.04

Recall the reported relative viability of Nc1cccc2c1CN(C1CCC(=O)NC1=O)C2=O (stereo not given) [Lenalidomide] + O=C(CCCCCCC(=O)Nc1ccccc1)NO [Vorinostat] (partner 1 µM) on UMC-11 and write it down.
0.428

Recall the reported relative viability of Nc1cccc2c1CN(C1CCC(=O)NC1=O)C2=O (stereo not given) [Lenalidomide] + CS(=O)(=O)N1CCN(Cc2cc3nc(-c4cccc5[nH]ncc45)nc(N4CCOCC4)c3s2)CC1 [Pictilisib] (partner 1 µM) on UMC-11 and write it down.
0.819

Recall the reported relative viability of Nc1cccc2c1CN(C1CCC(=O)NC1=O)C2=O (stereo not given) [Lenalidomide] + Cc1nc(NC(=O)N2CCC[C@H]2C(N)=O)sc1-c1ccnc(C(C)(C)C(F)(F)F)c1 [Alpelisib] (partner 2 µM) on UMC-11 and write it down.
1.03
